- Tested on: HL-1
- assayDetails: relative cell viability (CellTiter-Glo) vs DMSO control (% of DMSO control); higher = more viable cells
- measurementConditions: oxygen condition: hypoxia 48 h (1% O2) + reoxygenation 24 h; 5000 nM
Where a name gives a salt, the structure may show the parent alone.
reportedMetric: relative cell viability
Answers are plain numbers.

Record excerpt, results attached:
compound	readoutNumber
CC(C)n1c(/C=C/C(O)CC(O)CC(=O)O)c(-c2ccc(F)cc2)c2ccccc21 (stereo not drawn) [Fluvastatin sodium]	3.7
CCN(CC)CCNC(=O)c1c(C)[nH]c(/C=C2\C(=O)Nc3ccc(F)cc32)c1C [Sunitinib Malate]	115
CCN(CC)CC(=O)Nc1c(C)cccc1C	111
CCOC(=O)[C@H](CCc1ccccc1)N[C@@H](C)C(=O)N1C(=O)N(C)C[C@H]1C(=O)O	115
NCC(=O)CCC(=O)O [5-Aminolevulinic acid hydrochloride]	110

Here are 2 compounds. What values of relative cell viability were reported for them?
1. CN1CCCCC1CCN1c2ccccc2Sc2ccc([S+](C)[O-])cc21 (stereo not drawn) [Mesoridazine Besylate]
2. Cc1c(N(C)C)c(=O)n(-c2ccccc2)n1C

a:
1: 113; 2: 114

* * *

- System: HL-1
- assayDetails: relative cell viability (CellTiter-Glo) vs DMSO control (% of DMSO control); higher = more viable cells
- measurementConditions: oxygen condition: normoxia 72 h; 5000 nM
Could you please report measured relative cell viability for the items listed next?
Give bare numbers.

Record excerpt, results attached:
CCN1CCN(c2cc(-c3ccc(F)cc3)c3c(n2)CCCCCC3)CC1 51.2
COC(=O)[C@H]1[C@H]2C[C@@H]3c4[nH]c5cc(OC)ccc5c4CCN3C[C@H]2C[C@@H](OC(=O)c2cc(OC)c(OC)c(OC)c2)[C@@H]1OC 113
CO[C@H]1C[C@@H]2CC[C@@H](C)[C@@](O)(O2)C(=O)C(=O)N2CCCC[C@H]2C(=O)O[C@H]([C@H](C)C[C@@H]2CC[C@@H](OCCO)[C@H](OC)C2)CC(=O)[C@H](C)/C=C(\C)[C@@H](O)[C@@H](OC)C(=O)[C@H](C)C[C@H](C)/C=C/C=C/C=C/1C 69.7
CCNC(=O)CCC/C=C\C[C@@H]1[C@@H](/C=C/[C@@H](O)CCc2ccccc2)[C@H](O)C[C@@H]1O 107

q: For `C[C@]12CCC(=O)C=C1[C@@H]1C[C@@H]1[C@H]1[C@@H]3[C@@H]4C[C@@H]4[C@@]4(CCC(=O)O4)[C@@]3(C)CC[C@@H]12` , what is its reported relative cell viability?
a: 104

* * *

- System: HL-1
- assayDetails: relative cell viability (CellTiter-Glo) vs DMSO control (% of DMSO control); higher = more viable cells
- measurementConditions: oxygen condition: normoxia 72 h; 1000 nM
reportedMetric: relative cell viability
Give bare numbers.

Record excerpt, results attached:
molecule	testedOn	relative cell viability
Nc1ccn([C@@H]2O[C@H](CO)[C@@H](O)[C@H]2O)c(=O)n1	HL-1	101
C[N+](C)(C)C[C@H](O)CC(=O)[O-]	HL-1	102
Clc1ccc(COC(Cn2ccnc2)c2ccc(Cl)cc2Cl)cc1 (centres undefined) [Econazole nitrate]	HL-1	102
CC1=CC(=O)c2ccccc2C1=O	HL-1	101
CCOc1cc(CC(=O)N[C@@H](CC(C)C)c2ccccc2N2CCCCC2)ccc1C(=O)O [Repaglinide]	HL-1	114
NC(=O)c1ncn([C@@H]2O[C@H](CO)[C@@H](O)[C@H]2O)n1	HL-1	109
CC(C)(C)NC(=O)[C@H]1CC[C@H]2[C@@H]3CC[C@H]4NC(=O)C=C[C@]4(C)[C@H]3CC[C@]12C [Finasteride]	HL-1	111
CCCN(CCC)S(=O)(=O)c1ccc(C(=O)O)cc1	HL-1	109

As a next step, examine the molecule that follows.
q: Kindly state the measured relative cell viability obtained for `S=c1[nH]cnc2nc[nH]c12` with HL-1.
a: 108

* * *

- System: HL-1
- assayDetails: relative cell viability (CellTiter-Glo) vs DMSO control (% of DMSO control); higher = more viable cells
- measurementConditions: oxygen condition: normoxia 72 h; 200 nM
Where a name gives a salt, the structure may show the parent alone.
reportedMetric: relative cell viability

Record excerpt, results attached:
compound	relative cell viability
C=CC(=O)N1CCC[C@@H](n2nc(-c3ccc(Oc4ccccc4)cc3)c3c(N)ncnc32)C1	90.2
CC(C)OC(=O)C(C(=O)OC(C)C)=C1SC=CS1 [Malotilate]	104

Here are 2 compounds. What values of relative cell viability were reported for them?
1. CCN1CCC[C@H]1CNC(=O)c1cc(S(N)(=O)=O)ccc1OC [Levosulpiride]
2. CC(=O)O[C@H]1CC[C@@]2(C)C(=CC[C@@H]3[C@@H]2CC[C@]2(C)C(c4cccnc4)=CC[C@@H]32)C1 [Abiraterone Acetate]

a:
1: 108; 2: 99.2

Here are 4 compounds. What values of relative cell viability were reported for them?
1. CC1(C)Cc2c(-c3ccccc3)c(-c3ccc(Cl)cc3)c(CC(=O)O)n2C1
2. Cc1cccc(CN2CCN(C(c3ccccc3)c3ccc(Cl)cc3)CC2)c1 (stereo not drawn) [Meclizine 2HCl]
3. C[C@]12C=CC(=O)N[C@@H]1CC[C@@H]1[C@@H]2CC[C@]2(C)[C@@H](C(=O)Nc3cc(C(F)(F)F)ccc3C(F)(F)F)CC[C@@H]12 [Dutasteride]
4. CCOC(=O)c1ccc(OC(=O)CCCCCNC(=N)N)cc1 [Gabexate mesylate]

a:
1. 96.5
2. 109
3. 106
4. 98.9

* * *

- Tested on: HL-1
- assayDetails: relative cell viability (CellTiter-Glo) vs DMSO control (% of DMSO control); higher = more viable cells
- measurementConditions: oxygen condition: hypoxia 48 h (1% O2) + reoxygenation 24 h; 1000 nM
Structures can show the parent of a compound that is named as a salt.
# note: exactly 100 is not below, so it is no (0); use yes (1) for relative cell viability strictly under it

compound	className
N=C(N)NCCN1CCCCCCC1 [Guanethidine Sulfate]	yes (1)
O=P(O)(O)C(O)(Cc1cccnc1)P(=O)(O)O [Risedronate sodium]	no (0)
CN(C)CCCN1c2ccccc2CCc2ccccc21 [Imipramine HCl]	yes (1)
O=C1[C@H](CC[C@H](O)c2ccc(F)cc2)[C@@H](c2ccc(O)cc2)N1c1ccc(F)cc1	no (0)
Cc1cn([C@H]2C[C@H](N=[N+]=[N-])[C@@H](CO)O2)c(=O)[nH]c1=O	no (0)

q: Please state whether relative cell viability is below 100 for COC(=O)C1=C(C#N)NC(C)=C(C(=O)OC(C)C)C1c1cccc([N+](=O)[O-])c1 (configuration not stated)
a: yes (1)

q: Please state whether relative cell viability is below 100 for CCOC(=O)[C@H](CCc1ccccc1)N[C@@H](C)C(=O)N1Cc2cc(OC)c(OC)cc2C[C@H]1C(=O)O [Moexipril HCl]
a: no (0)

q: Please state whether relative cell viability is below 100 for `CCc1c2c(nc3ccc(OC(=O)N4CCC(N5CCCCC5)CC4)cc13)-c1cc3c(c(=O)n1C2)COC(=O)[C@]3(O)CC`
a: yes (1)

q: Please state whether relative cell viability is below 100 for `CC(=O)O[C@H]1C(=O)[C@@]2(C)[C@H]([C@H](OC(=O)c3ccccc3)[C@]3(O)C[C@H](OC(=O)[C@H](O)[C@@H](NC(=O)c4ccccc4)c4ccccc4)C(C)=C1C3(C)C)[C@]1(OC(C)=O)CO[C@@H]1C[C@@H]2O`
a: yes (1)

q: Please state whether relative cell viability is below 100 for `COc1ccc(C2C(=O)c3ccccc3C2=O)cc1`
a: no (0)

q: Please state whether relative cell viability is below 100 for CC1(C)O[C@@H]2[C@@H](CO[C@@]3(COS(N)(=O)=O)OC(C)(C)O[C@@H]23)O1 [Topiramate]
a: no (0)

q: Please state whether relative cell viability is below 100 for COc1ccccc1OCC(O)COC(N)=O (configuration not stated)
a: no (0)

* * *

Could you please report measured relative cell viability for the items listed next?
- Test system: HL-1
- assayDetails: relative cell viability (CellTiter-Glo) vs DMSO control (% of DMSO control); higher = more viable cells
- measurementConditions: oxygen condition: normoxia 72 h; 200 nM
Structures can show the parent of a compound that is named as a salt.
Answers are plain numbers.

Record excerpt, results attached:
compound	readoutNumber
Nc1[nH]cnc2ncnc1-2 [Adenine hydrochloride]	96.4
O=C1Cc2cc(CCN3CCN(c4nsc5ccccc45)CC3)c(Cl)cc2N1 [Ziprasidone hydrochloride]	98.2
COc1ccc(Cl)cc1C(=O)NCCc1ccc(S(=O)(=O)NC(=O)NC2CCCCC2)cc1 [Glyburide]	103
OC(CNCC(O)C1CCc2cc(F)ccc2O1)C1CCc2cc(F)ccc2O1 (centres undefined) [Nebivolol]	107
Cc1ccc(C(=O)Nc2ccc(CN3CCN(C)CC3)c(C(F)(F)F)c2)cc1C#Cc1cnc2cccnn12 [Ponatinib]	103
COc1cc2nc(N3CCN(C(=O)C4COc5ccccc5O4)CC3)nc(N)c2cc1OC (centres undefined) [Doxazosin mesylate]	102
Nc1ccn([C@@H]2O[C@H](CO)[C@@H](O)[C@H]2O)c(=O)n1 [Cytidine]	107
Cc1cccc(Nc2ccccc2C(=O)O)c1C [Mefenamic acid]	105

q: For O=C(O)c1cccnc1 [Niacin] , what is its reported relative cell viability?
a: 111
